Test: Pharmacokinetic test in rats
Type: in vivo, SD rats
Conditions: rat, plasma, IV, 2.5 mg/kg
Counter-ions that a name gives are not always drawn.
measuredParameter: half-life (h)
// units = h; emit number, no label

Task: Give the measured half-life for O=C1CCN(c2cc3c(cc2F)N2CCN(C4CC5(CCN(c6ccc(Nc7ccc(-c8cnc9cc(F)ccn89)c8c7C(=O)NC8)nc6)CC5)C4)C[C@@H]2CC3)C(=O)N1 [Trifluoroacetic acid salt of compound 20]
Output: 4.78

Task: Give the measured half-life for O=C1CCN(c2cc3c(cc2F)N2CCN(CC4CCN(c5ccc(Nc6ccc(-c7cnc8cc(F)ccn78)c7c6C(=O)NC7)nc5)CC4)C[C@H]2CC3)C(=O)N1 [Trifluoroacetic acid salt of compound 6]
Output: 6.58

Task: Give the measured half-life for CN(C)Cc1nc(Nc2ccc(-c3cnc4cc(F)ccn34)c3c2C(=O)NC3)ccc1[C@@H]1CCOC1 [Control compound 1, reference compound]
Output: 0.986

Task: Give the measured half-life for N#Cc1ccn2c(-c3ccc(Nc4ccc(N5CCC(CN6CCN7c8cc(F)c(N9CCC(=O)NC9=O)cc8CC[C@H]7C6)CC5)cn4)c4c3CNC4=O)cnc2c1 [Trifluoroacetic acid salt of compound 39]
Output: 4.21

Task: Give the measured half-life for O=C1CCN(c2cc3c(cc2F)N2CCN(C4CC5(CCN(c6ccc(Nc7ccc(-c8cnc9cc(F)ccn89)c8c7C(=O)NC8)nc6)CC5)C4)C[C@H]2CC3)C(=O)N1 [Trifluoroacetic acid salt of compound 19]
Output: 7.66

----------
Assay: Pharmacokinetic test in mice
Assay type: in vivo, ICR mice
Conditions: mouse, plasma, IV, 2.5 mg/kg
measuredParameter: half-life (min)
// units = min; emit number, no label

Task: Give the measured half-life for CN(C)Cc1nc(Nc2ccc(-c3cnc4cc(F)ccn34)c3c2C(=O)NC3)ccc1[C@@H]1CCOC1 [Control compound 1, reference compound]
Output: 53.4

----------
Assay: Pharmacokinetic test in mice
Format: in vivo, ICR mice
Details: mouse, plasma, IV, 1 mg/kg
measuredParameter: half-life

Task: Give the measured half-life for N#Cc1ccn2c(-c3ccc(Nc4ccc(N5CCC6(CC5)CC(N5CCN7c8cc(F)c(N9CCC(=O)NC9=O)cc8CC[C@@H]7C5)C6)cn4)c4c3CNC4=O)cnc2c1
Output: 5.3 h

----------
Assay: Pharmacokinetic test in mice
Format: in vivo, ICR mice
Details: mouse, plasma, po, i. g., 5 mg/kg
Where a name gives a salt, the structure may show the parent alone.
measuredParameter: half-life (h)
// units = h; emit number, no label

Task: Give the measured half-life for N#Cc1ccn2c(-c3ccc(Nc4ccc(N5CCC(CN6CCN7c8cc(F)c(N9CCC(=O)NC9=O)cc8CC[C@@H]7C6)CC5)cn4)c4c3CNC4=O)cnc2c1 [Trifluoroacetic acid salt of compound 31]
Output: 3.03

----------
Assay: Pharmacokinetic test in mice
Type: in vivo, ICR mice
Conditions: mouse, plasma, po, i. g., 10 mg/kg
Counter-ions that a name gives are not always drawn.
Would you mind telling me the reported log10 Cmax of each entry?
# values: log10(Cmax), units ng/mL

Task: Give the measured log10 Cmax for N#Cc1ccn2c(-c3ccc(Nc4ccc(N5CCC6(CC5)CC(N5CCN7c8cc(F)c(N9CCC(=O)NC9=O)cc8CC[C@@H]7C5)C6)cn4)c4c3CNC4=O)cnc2c1
Output: 3.36

Task: Give the measured log10 Cmax for O=C1CCN(c2cc3c(cc2F)N2CCN(C4CC5(CCN(c6ccc(Nc7ccc(-c8cnc9cc(F)ccn89)c8c7C(=O)NC8)nc6)CC5)C4)C[C@@H]2CC3)C(=O)N1 [Trifluoroacetic acid salt of compound 20]
Output: 3.00

Task: Give the measured log10 Cmax for Cn1ccc2c(-c3ccc(Nc4ccc(N5CCC(CN6CCN7c8cc(F)c(N9CCC(=O)NC9=O)cc8CC[C@@H]7C6)CC5)cn4)c4c3CNC4=O)ccnc21 [Trifluoroacetic acid salt of compound 32]
Output: 3.10

Task: Give the measured log10 Cmax for Cn1ccc2c(-c3ccc(Nc4ccc(N5CCC(CN6CCN7c8cc(F)c(N9CCC(=O)NC9=O)cc8CC[C@H]7C6)CC5)cn4)c4c3CNC4=O)ccnc21 [Trifluoroacetic acid salt of compound 35]
Output: 3.42

Task: Give the measured log10 Cmax for CN(C)Cc1nc(Nc2ccc(-c3cnc4cc(F)ccn34)c3c2C(=O)NC3)ccc1[C@@H]1CCOC1 [Control compound 1, reference compound]
Output: 1.97

----------
Experiment: Pharmacokinetic test in rats
Type: in vivo, SD rats
Settings: rat, plasma, IV, 2.5 mg/kg
Counter-ions that a name gives are not always drawn.
measuredParameter: clearance (mL/min/kg)
// units = mL/min/kg; emit number, no label

Task: Give the measured clearance for N#Cc1ccn2c(-c3ccc(Nc4ccc(N5CCC(CN6CCN7c8cc(F)c(N9CCC(=O)NC9=O)cc8CC[C@H]7C6)CC5)cn4)c4c3CNC4=O)cnc2c1 [Trifluoroacetic acid salt of compound 39]
Output: 6.58

Task: Give the measured clearance for O=C1CCN(c2cc3c(cc2F)N2CCN(CC4CCN(c5ccc(Nc6ccc(-c7cnc8cc(F)ccn78)c7c6C(=O)NC7)nc5)CC4)C[C@H]2CC3)C(=O)N1 [Trifluoroacetic acid salt of compound 6]
Output: 9.78

Task: Give the measured clearance for CN(C)Cc1nc(Nc2ccc(-c3cnc4cc(F)ccn34)c3c2C(=O)NC3)ccc1[C@@H]1CCOC1 [Control compound 1, reference compound]
Output: 233

----------
Test: Pharmacokinetic test in mice
Type: in vivo, ICR mice
Settings: mouse, plasma, po, i. g., 10 mg/kg
Where a name gives a salt, the structure may show the parent alone.
Decide using half-life: a value greater than or equal to 7 h is yes (1), a smaller one is no (0).

Task: Threshold query (half-life >= 7 h) on Cn1ccc2c(-c3ccc(Nc4ccc(N5CCC(CN6CCN7c8cc(F)c(N9CCC(=O)NC9=O)cc8CC[C@H]7C6)CC5)cn4)c4c3CNC4=O)ccnc21 [Trifluoroacetic acid salt of compound 35]
Output: yes (1)

Task: Threshold query (half-life >= 7 h) on O=C1CCC(c2cc3c(cc2F)N2CCN(CC4CCN(c5ccc(Nc6ccc(-c7cnc8cc(F)ccn78)c7c6C(=O)NC7)nc5)CC4)C[C@@H]2CC3)C(=O)N1 (some centres unmarked) [Trifluoroacetic acid salt of compound 4]
Output: yes (1)

Task: Threshold query (half-life >= 7 h) on CN(C)Cc1nc(Nc2ccc(-c3cnc4cc(F)ccn34)c3c2C(=O)NC3)ccc1[C@@H]1CCOC1 [Control compound 1, reference compound]
Output: no (0)

Task: Threshold query (half-life >= 7 h) on N#Cc1ccn2c(-c3ccc(Nc4ccc(N5CCC6(CC5)CC(N5CCN7c8cc(F)c(N9CCC(=O)NC9=O)cc8CC[C@@H]7C5)C6)cn4)c4c3CNC4=O)cnc2c1
Output: no (0)

Task: Threshold query (half-life >= 7 h) on Cn1ccc2c(-c3ccc(Nc4ccc(N5CCC(CN6CCN7c8cc(F)c(N9CCC(=O)NC9=O)cc8CC[C@@H]7C6)CC5)cn4)c4c3CNC4=O)ccnc21 [Trifluoroacetic acid salt of compound 32]
Output: no (0)

Task: Threshold query (half-life >= 7 h) on O=C1CCN(c2ccc(N3CCN(CC4CCN(c5ccc(Nc6ccc(-c7cnc8cc(F)ccn78)c7c6C(=O)NC7)nc5)CC4)CC3)cc2F)C(=O)N1 [Trifluoroacetic acid salt of compound 2]
Output: no (0)

Task: Threshold query (half-life >= 7 h) on O=C1CCN(c2cc3c(cc2F)N2CCN(CC4CCN(c5ccc(Nc6ccc(-c7cnc8cc(F)ccn78)c7c6C(=O)NC7)nc5)CC4)C[C@H]2CC3)C(=O)N1 [Trifluoroacetic acid salt of compound 6]
Output: no (0)

Task: Threshold query (half-life >= 7 h) on O=C1CCN(c2cc3c(cc2F)N2CCN(CC4CCN(c5ccc(Nc6ccc(-c7cnc8cc(F)ccn78)c7c6C(=O)NC7)nc5)CC4)C[C@@H]2CC3)C(=O)N1
Output: no (0)

Task: Threshold query (half-life >= 7 h) on N#Cc1ccn2c(-c3ccc(Nc4ccc(N5CCC(CN6CCN7c8cc(F)c(N9CCC(=O)NC9=O)cc8CC[C@H]7C6)CC5)cn4)c4c3CNC4=O)cnc2c1 [Trifluoroacetic acid salt of compound 39]
Output: no (0)

Task: Threshold query (half-life >= 7 h) on O=C1CCN(c2cc3c(cc2F)N2CCN(CC4CC5(CCN(c6ccc(Nc7ccc(-c8cnc9cc(F)ccn89)c8c7C(=O)NC8)nc6)CC5)C4)C[C@@H]2CC3)C(=O)N1 [Trifluoroacetic acid salt of compound 15]
Output: yes (1)

Task: Threshold query (half-life >= 7 h) on O=C1CCC(c2ccc(N3CCN(CC4CCN(c5ccc(Nc6ccc(-c7cnc8cc(F)ccn78)c7c6C(=O)NC7)nc5)CC4)CC3)cc2F)C(=O)N1 (racemic) [Trifluoroacetic acid salt of compound 1]
Output: no (0)

Task: Threshold query (half-life >= 7 h) on O=C1CCN(c2cc3c(cc2F)N2CCN(C4CC5(CCN(c6ccc(Nc7ccc(-c8cnc9cc(F)ccn89)c8c7C(=O)NC8)nc6)CC5)C4)C[C@H]2CC3)C(=O)N1 [Trifluoroacetic acid salt of compound 19]
Output: no (0)

Task: Threshold query (half-life >= 7 h) on O=C1CCN(c2cc3c(cc2F)N2CCN(C4CC5(CCN(c6ccc(Nc7ccc(-c8cnc9cc(F)ccn89)c8c7C(=O)NC8)nc6)CC5)C4)C[C@@H]2CC3)C(=O)N1 [Trifluoroacetic acid salt of compound 20]
Output: no (0)

Task: Threshold query (half-life >= 7 h) on O=C1CC[C@H](NC(=O)c2cc3c(cc2F)N2CCN(CC4CCN(c5ccc(Nc6ccc(-c7cnc8cc(F)ccn78)c7c6C(=O)NC7)nc5)CC4)C[C@H]2CC3)C(=O)N1 [Trifluoroacetic acid salt of compound 8]
Output: no (0)
